Would you mind telling me the reported MFI FACS (pre-Myc incubation) of each entry?
Biological target: T1, mouse P2X7 (mouse, UniProt Q9Z1M0 1-595)
T1 construct: on transfected CHO or Hek293 cells, or endogenous on Yac-1 cells; also called mP2X7; mouse purinoceptor P2X7
T1 sequence: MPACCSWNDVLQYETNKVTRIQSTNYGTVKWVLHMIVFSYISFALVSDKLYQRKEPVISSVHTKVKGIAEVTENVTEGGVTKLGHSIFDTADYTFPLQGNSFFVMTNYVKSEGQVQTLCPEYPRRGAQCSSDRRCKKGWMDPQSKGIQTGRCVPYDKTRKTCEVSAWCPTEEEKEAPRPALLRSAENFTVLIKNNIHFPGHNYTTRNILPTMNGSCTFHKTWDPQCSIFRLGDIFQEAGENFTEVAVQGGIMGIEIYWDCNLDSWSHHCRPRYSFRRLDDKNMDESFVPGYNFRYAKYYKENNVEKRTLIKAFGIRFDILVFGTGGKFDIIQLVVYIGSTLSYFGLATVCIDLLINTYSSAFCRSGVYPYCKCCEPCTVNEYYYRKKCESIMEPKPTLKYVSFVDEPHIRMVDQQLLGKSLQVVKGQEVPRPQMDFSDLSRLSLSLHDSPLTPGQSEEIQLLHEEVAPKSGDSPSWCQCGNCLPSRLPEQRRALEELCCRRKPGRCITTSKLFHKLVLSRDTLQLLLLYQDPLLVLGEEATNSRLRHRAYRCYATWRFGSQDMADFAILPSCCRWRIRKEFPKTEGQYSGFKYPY
Assay: flow cytometry, periplasmic extract pre-incubated with anti-myc-FITC, on mP2X7-Hek293 cells;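 further: periplasmic extract diluted 10-fold and premixed 45 min at 4 °C with FITC anti-myc antibody, giving pseudo-bivalent Nanobodies, before binding to the cells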
Give the value; after it, write the unit.

Example binders with recorded MFI FACS (pre-Myc incubation):
Binder	MFI FACS (pre-Myc incubation)
P2X7PMP8F5 (VHH, family 5, 2; on phage or c-myc/His6-tagged in assays) VHH: EVQLVKSGGGLVQAGGSLRLSCAASGSFFRVNNMAWYRQAPGKQRELVADITRGDRTNYADSVNGRFTISRDNVRNTVYLQMNGLKPEDTAVYYCYARIELGPLVPRDYWGQGTQVTVSS	143 MFI
P2X7PMP19E3 (VHH, family 15; on phage or c-myc/His6-tagged in assays) VHH: EMQLVESGGGLVQAGGSLRLSCAASPGTFSSFNMGWFRQTPGKEREFVAATSWSDISTYYADSVKGRFTISRDNAKNTVTLEMNSLKPEDTAVYYCAAGYYRGGYLGYRLTLEGSYDVWGQGTQVTVSS	55 MFI
P2X7PMP8B12 (VHH, family 5, 3; on phage or c-myc/His6-tagged in assays) VHH: EVQLVESGGGLVQAGGSLRLSCAASGSFFRVNVMAWYRQGPGKQRELVADITRGDRTNYADSVNGRFTISRDNVRNTVYLQMNGLKPEDTAVYYCYATIELGVLEPRDYWGQGTQVTVSS	93 MFI

Give measured MFI FACS (pre-Myc incubation) for every item shown.
1. P2X7PMP8C12 (VHH, family 5, 3; on phage or c-myc/His6-tagged in assays) VHH: EVQLVESGGGLVQAGGSLRLSCAASGSFFRVNNMAWYRQAPGKQRELVADITRGDRTNYADSVNGRFTISRDNVRNTVYLQMNGLKPEDTAVYYCYATIELGVLEPRDYWGQGTQVTVSS
2. P2X7PMP8H4 (VHH, family 5, 3; on phage or c-myc/His6-tagged in assays) VHH: EVQLVESGGGLVQAGGSLRLSCAASGSFFRVNNMAWYRQGPGKQRELVADITRGDRTNYADSVNGRFTISRDNVRNTVYLQMDGLKPEDTAVYYCYATIELGVLVPRDYWGQGTQVTVSS

1. 89 MFI
2. 65 MFI

Your task in this section: give MFI FACS (pre-Myc incubation) for each listed record.
1. P2X7PMP8B4 (VHH, family 5, 2; on phage or c-myc/His6-tagged in assays) VHH: EVQLVESGGGLVQAGGSLRLSCAASGNFFRVNTMAWYRQAPGKQRELVADITRGDRTNYADTVNGRFTISRDNVRNTVYLQMNSLKPEDTAAYYCYARIELGVLEPRDYWGQGTQVTVSS
2. P2X7PMP8D10 (VHH, family 5, 3; on phage or c-myc/His6-tagged in assays) VHH: EVQLVESGGGLVQPGGSLRLSCAASGSFFRVNNMAWYRQAPGKQRELVADITRGDRTNYADSVNGRFTISRDNVRNTVYLQMNGLKPEDTAVYYCYATIELGVLEPRDYWGQGTQVTVSS
3. P2X7PMP8G11 (VHH, family 5, 1; on phage or c-myc/His6-tagged in assays; also called 8011) VHH: AVQLVESGGGLVQAGGSLRLSCAASGNFFRVNTMAWYRQAPGKQRELVADITRGDRTNYADTVNGRFTISRDNVRNTVYLQMNGLRPEDTAAYYCYAVIELGVLEPRDYWGQGTQVTVSS

1: 71 MFI; 2: 94 MFI; 3: 166 MFI
